Listed here: items and their measured log10(MIC).
tested on: Mycobacterium tuberculosis H37Ra; assay: Antimycobacterial screening (microdilution broth, resazurin) against M. tuberculosis H37Ra; format: cell-based; settings: Mycobacterium tuberculosis, H37RA, read-out: MIC Mtb H37Ra (µM)
outcome.measure: log10(MIC) (log10 of the value in µM)

INSERT INTO assay_data (molecule, recorded_number) VALUES
  ('COc1ccc2c3c1O[C@H]1C[C@@H](OC(=O)c4ccc(C(C)(C)C)cc4)C=C[C@@]31CCN(C)C2 [1h, 6-O-(4-tert-butylbenzoyl)galanthamine]', 0.84),
  ('CO[C@H]1/C=C/O[C@@]2(C)Oc3c(C)c(O)c4c(O)c(c(/C=N/N5CCN(C)CC5)c(O)c4c3C2=O)NC(=O)/C(C)=C\C=C\[C@H](C)[C@H](O)[C@@H](C)[C@@H](O)[C@@H](C)[C@H](OC(C)=O)[C@@H]1C [rifampicin, reference compound]', -2.12),
  ('CCCCc1ccc(C(=O)OC2C=C3C4CN(Cc5cc6c(cc54)OCO6)C3CC2OC)cc1 (stereo not shown) [3d]', 0.90),
  ('COC1CC2C(=CC1OC(=O)c1cc(C)cc(C)c1)C1CN2Cc2cc3c(cc21)OCO3 (stereo not shown) [3a]', 1.22),
  ('NNC(=O)c1ccncc1 [isoniazid, reference compound]', 0.26),
  ('COc1ccc2c3c1O[C@H]1C[C@@H](OC(=O)c4ccccc4C)C=C[C@@]31CCN(C)C2 [1b, 6-O-(2-methylbenzoyl)galanthamine]', 1.55),
  ('COc1ccc2c3c1O[C@H]1C[C@@H](OC(=O)c4cccc(C)c4C)C=C[C@@]31CCN(C)C2 [1e, 6-O-(2,3-dimethylbenzoyl)galanthamine]', 1.23),
  ('COc1ccc2c3c1O[C@H]1C[C@@H](OC(=O)c4ccco4)C=C[C@@]31CCN(C)C2 [1s, 6-O-(2-furoyl)galanthamine]', 2.18),
  ('COC1CC2C(=CC1OC(=O)c1c(C)cc(C)cc1C)C1CN2Cc2cc3c(cc21)OCO3 (stereo not shown) [3b]', 1.21),
  ('COc1cc2c(cc1OC)[C@@]13C=C[C@@H](OC(=O)c4cccc5ccccc45)C[C@@H]1N(CC3)C2 [5b, 3-O-(1-naphthoyl)maritidine]', 1.21),
  ('COc1ccc2c3c1O[C@H]1C[C@@H](OC(=O)c4ccc5ccccc5c4)C=C[C@@]31CCN(C)C2 [1r, 6-O-(2-naphthoyl)galanthamine]', 0.61),
  ('O=C(O[C@@H]1C=C[C@]23CCN(Cc4cc5c(cc42)OCO5)[C@H]3C1)c1cccc2ccccc12 [4a, 3-O-(1-naphthoyl)vittatine]', 0.93);
